Target: Streptokinase A (Streptococcus pyogenes serotype M1)
Sequence (P10520 whole entry): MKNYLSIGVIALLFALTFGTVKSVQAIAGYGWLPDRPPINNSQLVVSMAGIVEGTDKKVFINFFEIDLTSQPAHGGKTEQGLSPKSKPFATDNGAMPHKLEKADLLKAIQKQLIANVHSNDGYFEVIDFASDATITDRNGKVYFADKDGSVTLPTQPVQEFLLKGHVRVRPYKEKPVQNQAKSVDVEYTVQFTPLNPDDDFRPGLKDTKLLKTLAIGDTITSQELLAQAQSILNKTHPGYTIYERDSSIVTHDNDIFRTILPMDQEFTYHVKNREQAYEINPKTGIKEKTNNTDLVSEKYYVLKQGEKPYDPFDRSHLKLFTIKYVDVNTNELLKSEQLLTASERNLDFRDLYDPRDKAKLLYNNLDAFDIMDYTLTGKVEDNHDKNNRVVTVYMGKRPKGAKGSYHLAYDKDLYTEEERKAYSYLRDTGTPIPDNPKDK
Assay: S. pyogenes streptokinase expression inhibitors, potency, dose response, plasminogen activation absorbance, OD405 (AID 1914);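 note: secreted streptokinase activity via plasminogen activation per viability signal from cell pellet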
Type: functional, Streptococcus pyogenes M1 GAS
Calls of active or inactive are those of the source.

# MOLECULE, TEST_TARGET, EC50
measured = [
    ("COc1ccccc1N1CCN(C(=O)/C=C/c2ccc(C)cc2)CC1", "Streptokinase A (Streptococcus pyogenes serotype M1)", "107 µM (active)"),
    ("COc1ccc(-c2coc3c(C)c4oc(=O)c(CCC(=O)O)c(C)c4cc23)cc1", "Streptokinase A (Streptococcus pyogenes serotype M1)", "> 150 µM (not active)"),
    ("c1ccc(-c2nc(NCc3ccco3)c3ccccc3n2)nc1", "Streptokinase A (Streptococcus pyogenes serotype M1)", "> 150 µM (not active)"),
    ("O=C(NC(=S)Nc1ccc(Cl)c(C(=O)O)c1)c1cccc(COc2ccccc2)c1", "Streptokinase A (Streptococcus pyogenes serotype M1)", "> 150 µM (not active)"),
    ("Cc1ccc(C(=O)Nc2nnc(S(=O)(=O)N3CCN(c4ccc(F)cc4)CC3)s2)cc1", "Streptokinase A (Streptococcus pyogenes serotype M1)", "> 150 µM (not active)"),
    ("Cc1cc(Br)c(OCc2ccc(C(=O)N/N=C3\\CC4CC=CC34)cc2)c(Br)c1 (stereo not given)", "Streptokinase A (Streptococcus pyogenes serotype M1)", "> 150 µM (not active)"),
    ("C/C(=N\\NC(=O)c1ccc(Cl)c(Cl)c1)c1ccc(Br)s1", "Streptokinase A (Streptococcus pyogenes serotype M1)", "> 150 µM (not active)"),
    ("Cc1ccnc(NC(c2ccsc2)c2ccc3ccc(C)nc3c2O)c1 (stereo not given)", "Streptokinase A (Streptococcus pyogenes serotype M1)", "> 150 µM (not active)"),
    ("CC(=O)Oc1ccc(/C=N/NS(=O)(=O)c2ccccc2)cc1", "Streptokinase A (Streptococcus pyogenes serotype M1)", "> 150 µM (not active)"),
    ("CC(/C=C1\\SC(=S)N(NS(=O)(=O)c2ccccc2)C1=O)=C\\c1ccccc1", "Streptokinase A (Streptococcus pyogenes serotype M1)", "21.4 µM (active)"),
]

###

Target: Trace amine-associated receptor 1 (Homo sapiens)
Sequence (Q96RJ0 whole entry): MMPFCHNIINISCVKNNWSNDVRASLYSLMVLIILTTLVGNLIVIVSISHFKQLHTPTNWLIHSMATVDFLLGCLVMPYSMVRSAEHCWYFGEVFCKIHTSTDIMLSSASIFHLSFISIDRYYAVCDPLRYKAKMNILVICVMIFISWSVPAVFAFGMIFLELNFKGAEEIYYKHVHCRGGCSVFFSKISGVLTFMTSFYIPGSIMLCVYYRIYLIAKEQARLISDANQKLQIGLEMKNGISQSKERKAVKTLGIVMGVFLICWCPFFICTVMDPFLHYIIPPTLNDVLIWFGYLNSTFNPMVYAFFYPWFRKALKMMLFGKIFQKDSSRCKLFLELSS
Experiment: Fluorescence-based cell-based high throughput dose response assay to identify agonists of the human trace amine associated receptor 1 (TAAR1).
Type: functional
The source made the active and inactive calls.
Recorded EC50 by entry

# COMPOUND, EC50
records = [
    ("Cc1ccc(N2CN(CCc3ccccc3)CN=C2S)cc1", "1160 nM (active)"),
    ("CC1CCCN(CCC(=O)c2ccc(Br)cc2)C1 (configuration not stated)", "1670 nM (active)"),
    ("Cc1c(Cl)cccc1Nc1nc(NCCO)c2ccccc2n1", "2940 nM (active)"),
    ("O=c1nc(N2CCCCC2)nc(Nc2ccccc2)[nH]1", "3440 nM (active)"),
    ("COc1ccc(-c2cc(C3CCN(CC(O)C(F)(F)F)CC3)[nH]n2)cc1 (configuration not stated)", "3520 nM (active)"),
    ("CN(CCc1ccccc1)Cc1c[nH]c2ccccc12", "1050 nM (active)"),
    ("O=C(Cc1nnc(NC(=O)Nc2ccccc2)s1)Nc1ccccc1", "> 1.5 nM (active)"),
]

###

Target: DNA repair and recombination protein RAD54-like (Homo sapiens, UniProt Q92698)
Sequence (Q92698 whole entry): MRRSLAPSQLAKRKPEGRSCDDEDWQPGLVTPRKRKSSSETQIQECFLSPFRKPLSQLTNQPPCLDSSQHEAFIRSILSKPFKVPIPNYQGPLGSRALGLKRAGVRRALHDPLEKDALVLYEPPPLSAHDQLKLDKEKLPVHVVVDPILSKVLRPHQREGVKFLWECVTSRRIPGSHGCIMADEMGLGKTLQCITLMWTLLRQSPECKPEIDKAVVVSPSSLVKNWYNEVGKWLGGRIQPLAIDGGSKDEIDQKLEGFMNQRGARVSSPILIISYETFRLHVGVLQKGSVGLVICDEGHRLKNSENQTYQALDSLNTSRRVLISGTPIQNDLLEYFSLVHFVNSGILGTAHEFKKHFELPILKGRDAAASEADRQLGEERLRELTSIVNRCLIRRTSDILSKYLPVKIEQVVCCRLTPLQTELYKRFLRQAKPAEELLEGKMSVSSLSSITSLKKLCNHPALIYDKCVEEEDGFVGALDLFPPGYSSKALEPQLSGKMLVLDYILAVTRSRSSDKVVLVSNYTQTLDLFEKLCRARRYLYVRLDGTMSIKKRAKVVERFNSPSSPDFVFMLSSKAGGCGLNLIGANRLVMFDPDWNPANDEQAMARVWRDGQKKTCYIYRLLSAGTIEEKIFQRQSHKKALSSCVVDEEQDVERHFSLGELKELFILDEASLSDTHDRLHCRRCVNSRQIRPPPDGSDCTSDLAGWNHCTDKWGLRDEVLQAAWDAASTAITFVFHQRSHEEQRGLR
Test: inhibitors of human RAD54 branch migration, confirmation, biochemical, fluorescence, cherry-picked samples, dose series (AID 651657)
Assay type: functional
Calls of active or inactive are those of the source.
Recorded AC50 by entry

# SMILES_STRING, AC50
rows = [
    ("CCCN1CCN(CCCNC(=O)c2cc3c(=O)n(C)c4ccccc4c3n2C)CC1", "34.7 µM (active)"),
    ("COc1ccc2nc(C)cc(Nc3ccc(N4CCOCC4)cc3)c2c1", "17.4 µM (active)"),
    ("CCOC(=O)N1CCN(S(=O)(=O)c2ccc(C(=O)Nc3sc4c(c3C(=O)OC)CCN(C)C4)cc2)CC1", "16.8 µM (active)"),
    ("COc1cc(NCCCNC(C)C)c2nccc(C)c2c1", "49.6 µM (active)"),
    ("CN1CCC(N(C)c2nc(-c3ccccc3)nc3ccccc23)CC1", "18.1 µM (active)"),
]

###

Test system: INS1
Assay: beta cell apoptosis inhibitors, cytokine rescue, dose response, luminescence, retest (AID 449756);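 note: cell death triggered by IL-1 beta plus TNF-alpha plus IFN-gamma mixture; protective hits raise ATP signal compared with cytokine alone wells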
Assay type: functional, cell-based
Details: Rattus norvegicus
Active and inactive are the calls of the source.
Recorded AC50 by entry

# MOLECULE, TEST_TARGET, AC50
records = [
    ("O=C(Nc1cccc(Cl)c1)Nc1nnc(-c2ccncc2)s1", "INS1", "4.54 µM (active)"),
    ("CCCNC(=O)c1ccc2c(O)c(O)c(-c3cccc(Br)c3)nc2c1", "INS1", "5.4 µM (active)"),
    ("Cc1nc2ccc(NC(=O)c3cc(S(=O)(=O)N(C)c4ccccc4)ccc3Cl)cc2s1", "INS1", "1.72 µM (active)"),
    ("CCCCCCc1ccc(N2C[C@H](Cc3ccccc3)[C@@H](CC(=O)NCc3ccc(OC)cc3)C2=O)cc1", "INS1", "7.78 µM (active)"),
    ("O=C(NNC(=S)Nc1ccc(Cl)c(Cl)c1)c1ccccn1", "INS1", "1.06 µM (active)"),
    ("COc1ccccc1NC(=O)c1cc2cc(Br)ccc2cc1O", "INS1", "6.21 µM (active)"),
    ("O=[N+]([O-])c1ccc(N2CCN(CCOc3nonc3-c3ccccc3)CC2)c(Cl)c1", "INS1", "4.8 µM (active)"),
    ("c1ccc2c(CN3CCCCCCC3)c[nH]c2c1", "INS1", "4.22 µM (active)"),
    ("Cc1cccc(CNc2ccc(S(=O)(=O)N3CCCCC3)cc2)c1", "INS1", "27.2 µM (active)"),
    ("Cc1oc2c(c1C(=O)c1ccccc1)C(=O)C(=O)c1ccccc1-2", "INS1", "2.71 µM (active)"),
    ("O=C1C(Cl)=C(NCCN2CCCCC2)C(=O)c2ccccc21", "INS1", "4.41 µM (active)"),
    ("COc1ccc(/C=N/Nc2cc(C)nc3ccc(OC)cc23)c(OC)c1", "INS1", "7.95 µM (active)"),
    ("O=[N+]([O-])c1ccc(-[n+]2ccc3ccccc3c2)c([N+](=O)[O-])c1", "INS1", "3.36 µM (active)"),
    ("Cc1cc(Cl)c(S(=O)(=O)N2CCN(c3ccc(F)cc3)CC2)cc1OCC(=O)NC1CCCCC1", "INS1", "4.82 µM (active)"),
    ("CC(C)(C)c1ccc(C(O)CCCN2CCC(C(O)(c3ccccc3)c3ccccc3)CC2)cc1 (stereo unspecified) [TERFENADINE]", "INS1", "8.13 µM (active)"),
    ("CCN(CC)c1ccc(/C=N/Nc2nc(C)cc(C)n2)c(O)c1", "INS1", "2.84 µM (active)"),
]

###

Biological target: Albumin (Bos taurus, UniProt P02769)
Sequence (P02769 whole entry): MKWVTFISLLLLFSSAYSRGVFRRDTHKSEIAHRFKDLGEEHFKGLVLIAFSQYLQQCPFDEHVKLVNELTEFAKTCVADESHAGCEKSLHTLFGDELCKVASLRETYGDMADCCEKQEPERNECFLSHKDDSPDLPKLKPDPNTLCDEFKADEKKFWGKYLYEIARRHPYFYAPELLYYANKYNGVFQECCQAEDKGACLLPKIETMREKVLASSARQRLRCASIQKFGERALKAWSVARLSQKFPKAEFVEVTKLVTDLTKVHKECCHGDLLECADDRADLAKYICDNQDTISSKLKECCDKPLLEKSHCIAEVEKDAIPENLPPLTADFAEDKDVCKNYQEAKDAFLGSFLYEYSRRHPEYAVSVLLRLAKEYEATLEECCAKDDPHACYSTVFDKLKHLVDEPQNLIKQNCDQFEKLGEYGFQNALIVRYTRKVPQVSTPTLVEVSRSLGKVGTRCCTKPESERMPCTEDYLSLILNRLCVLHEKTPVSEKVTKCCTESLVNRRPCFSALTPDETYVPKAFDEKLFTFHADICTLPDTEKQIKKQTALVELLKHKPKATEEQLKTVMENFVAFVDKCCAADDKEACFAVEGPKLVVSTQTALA
Assay: Counterscreen for inhibitors of T-cell receptor (TCR)-CD3 interaction: Fluorescence-based biochemical high throughput dose response assay to identify inhibitors of T-cell receptor (TCR)-CD3 interaction using a TAMRA-labeled BSA probe.
Format: functional
The source made the active and inactive calls.
Recorded IC50 by entry

# SMILES_STRING, IC50
measured = [
    ("O=c1cc(-c2ccc(O)c(O)c2)oc2c1ccc1ccccc12", "> 94.1 µM (inactive)"),
    ("Nc1ccc2nc3c(O)nc(S)nc3nc2c1", "25.6 µM (inactive)"),
    ("O=C(NNC(=O)c1ccccc1O)c1ccc(-c2ccc([N+](=O)[O-])cc2)o1", "> 94.1 µM (inactive)"),
    ("O=C(NNC(=O)c1ccc2ccccc2c1O)c1ccccc1Cl", "> 94.1 µM (inactive)"),
    ("COc1ccc(NC(=O)NNC(=O)c2ccc3ccccc3c2O)cc1OC", "> 94.1 µM (inactive)"),
    ("O=C(CCNC(=O)c1ccc(Br)cc1)NNC(=O)c1ccccc1O", "> 94.1 µM (inactive)"),
    ("O=C(CP(=O)(c1ccccc1)c1ccccc1)N/N=C/c1cc(Br)cc(Br)c1O", "> 94.2 µM (inactive)"),
]

The reported numbers originate from ChEMBL document CHEMBL1201862.
